- Assay summary: Cell viability assay for MT-4 cells
- Test parameters: human
Where a name gives a salt, the structure may show the parent alone.
Outcome measure: CC50 at 7 days

INSERT INTO measurements (compound, reported_measurement) VALUES
  ('Cc1cn([C@H]2C[C@H](N=[N+]=[N-])[C@@H](CO)O2)c(=O)[nH]c1=O [AZT, azidothymidine, reference compound]', '> 5 µM'),
  ('CCCCCCCCCCCCOC(=O)c1c(Cl)c(Cl)c(Cl)c(Cl)c1-c1c2cc(I)c(=O)c(I)c-2oc2c(I)c(O)c(I)cc12', '> 50 µM'),
  ('O=C(O)c1c(Cl)c(Cl)c(Cl)c(Cl)c1-c1c2cc(I)c(=O)c(I)c-2oc2c(I)c(O)c(I)cc12 [compound 1, Rose Bengal, disodium salt, reference compound]', '> 50 µM');
